- Target Or Test System: human intestinal bile acid transporter (hIBAT) (Homo sapiens, UniProt Q12908)
- Construct: expressed in transfected cells; host or cells: COS-7 cells, transient transfection with pCMV5-hIBAT (LipofectAMINE 2000)
- Sequence (Q12908 1-348): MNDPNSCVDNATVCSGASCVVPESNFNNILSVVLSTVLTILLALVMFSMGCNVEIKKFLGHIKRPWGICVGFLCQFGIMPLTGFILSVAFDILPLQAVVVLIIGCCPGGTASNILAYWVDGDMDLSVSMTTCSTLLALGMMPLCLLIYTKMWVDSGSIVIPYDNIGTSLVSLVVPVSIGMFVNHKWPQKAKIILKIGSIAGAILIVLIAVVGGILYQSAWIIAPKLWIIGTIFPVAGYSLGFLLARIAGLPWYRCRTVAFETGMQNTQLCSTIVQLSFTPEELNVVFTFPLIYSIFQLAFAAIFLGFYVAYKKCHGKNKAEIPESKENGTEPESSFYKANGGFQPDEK
- Test Summary: Competitive inhibition of 3H-taurocholate uptake in COS-hIBAT cells
- Type: cell-based
- Experimental Setup: COS-7 cells transfected with hIBAT, HBSS with sodium, value (±SEM)
Measured Parameter: pKi
Keep it numeric: pKi is minus log10 of the concentration in mol/L.

In: Looking for the measured pKi of C[C@H](CCC(=O)O)[C@H]1CC[C@H]2[C@@H]3[C@H](O)C[C@@H]4C[C@H](O)CC[C@]4(C)[C@H]3CC[C@]12C [chenodeoxycholate] , can you help?
Out: 5.27
